experiment: PK study in non-human primates, single sc dose 5 nmol/kg, plasma ELISA
test_context: monkey, single sc dose 5 nmol/kg
Can you tell me Terminal t1/2 for the items I'm about to list?
Please provide the amount together with its unit, number first.

1) MLC089: fusion polypeptide SEQ ID NO: 379 conjugated with Moiety B at 39C of Linker (conjugate, Moiety B conjugated at linker Cys39) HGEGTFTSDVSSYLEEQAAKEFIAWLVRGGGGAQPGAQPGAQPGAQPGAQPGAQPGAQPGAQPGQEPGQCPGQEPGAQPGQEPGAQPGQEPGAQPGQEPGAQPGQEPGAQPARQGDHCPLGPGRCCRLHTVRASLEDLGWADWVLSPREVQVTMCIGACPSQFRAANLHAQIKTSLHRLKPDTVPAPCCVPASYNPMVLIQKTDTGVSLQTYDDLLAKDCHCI: 54 h

Query molecule follows.
Input: Would you kindly share the measured Terminal t1/2 for MLC093: fusion polypeptide SEQ ID NO: 381 conjugated with Moiety B at 33C of Linker (conjugate, Moiety B conjugated at linker Cys33) HGEGTFTSDVSSYLEEQAAKEFIAWLVRGGGGAQPGAQPGAQPGAQPGAQPGAQPGAQPGAQPCQEPGAQPGQEPGAQPGQEPGAQPGQEPGAQPGQEPGAQPGQEPGAQPARQGDHCPLGPGRCCRLHTVRASLEDLGWADWVLSPREVQVTMCIGACPSQFRAANLHAQIKTSLHRLKPDTVPAPCCVPASYNPMVLIQKTDTGVSLQTYDDLLAKDCHCI ?
Output: 41 h
